target.entity: EhACK (Entamoeba histolytica acetate kinase) (Entamoeba histolytica, UniProt C4M1C3, M324I/Q323G)
test.protocol: biochemical
experimental.endpoint: IC50
Kindly report the value followed by its unit.

Q) GET /values?readout=IC50&item= Nc1ncnc2c1ncn2[C@@H]1O[C@H](COP(=O)(O)OP(=O)(O)OP(=O)(O)O)[C@@H](O)[C@H]1O [ATP]
A) 4.2 mM
